Target: Androgen receptor (Homo sapiens)
Sequence (whole entry): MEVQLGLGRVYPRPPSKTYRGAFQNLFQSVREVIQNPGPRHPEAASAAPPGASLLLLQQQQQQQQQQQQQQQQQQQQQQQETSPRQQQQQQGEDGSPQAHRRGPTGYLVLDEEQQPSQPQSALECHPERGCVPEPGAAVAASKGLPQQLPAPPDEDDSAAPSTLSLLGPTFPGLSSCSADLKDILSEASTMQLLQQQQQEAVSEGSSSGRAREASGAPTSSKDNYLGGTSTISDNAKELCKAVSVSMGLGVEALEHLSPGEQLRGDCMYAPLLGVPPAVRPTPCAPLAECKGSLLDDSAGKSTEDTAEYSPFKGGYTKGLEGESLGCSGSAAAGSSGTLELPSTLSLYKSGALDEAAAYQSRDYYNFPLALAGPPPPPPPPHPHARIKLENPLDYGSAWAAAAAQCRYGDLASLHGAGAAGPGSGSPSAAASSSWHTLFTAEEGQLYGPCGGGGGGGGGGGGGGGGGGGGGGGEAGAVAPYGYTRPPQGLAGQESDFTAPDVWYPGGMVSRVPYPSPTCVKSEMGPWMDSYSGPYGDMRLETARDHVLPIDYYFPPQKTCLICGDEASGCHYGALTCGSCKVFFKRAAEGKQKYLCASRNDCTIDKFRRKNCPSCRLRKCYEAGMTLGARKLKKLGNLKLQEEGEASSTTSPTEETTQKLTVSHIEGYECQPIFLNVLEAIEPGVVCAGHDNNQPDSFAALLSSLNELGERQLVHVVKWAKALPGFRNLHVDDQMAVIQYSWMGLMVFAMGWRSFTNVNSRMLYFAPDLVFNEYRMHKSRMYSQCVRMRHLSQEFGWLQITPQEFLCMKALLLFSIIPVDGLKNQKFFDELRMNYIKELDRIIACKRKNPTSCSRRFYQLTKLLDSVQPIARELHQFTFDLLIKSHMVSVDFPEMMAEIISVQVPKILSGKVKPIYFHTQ
Conditions: HeLa
Description: Agonist activity at androgen receptor expressed in HeLa cells assessed as effect on dihydrotestosterone-induced transcriptional activity by reporter gene assay
Consider the following compounds; for each one, report its FI5.
Only the number, expressed in nM, is required.

Recorded FI5 for CCCCN(C)C(=O)CCCCCCCCCCC[C@@H]1CC2CC(=O)CC[C@]2(C)[C@H]2CC[C@]3(C)[C@@H](O)CC[C@H]3[C@H]12 (stereo partly drawn) , please? 9900

Form field: reported FI5 of C[C@]12CC[C@H]3[C@@H]([C@H](CCCCCCCCC[S+]([O-])CCCC(F)(F)C(F)(F)F)CC4CC(=O)CC[C@@]43C)[C@@H]1CC[C@@H]2O (stereo partly drawn) 490

Reported FI5, compound CCN(CC)C(=O)CCCCCCC1C[C@H]2CC(=O)CC[C@]2(C)[C@H]2CC[C@]3(C)[C@@H](O)CC[C@H]3[C@H]12 (stereo partly drawn) : ____ 1700

Looking for the measured FI5 of C[C@]12CC[C@H]3[C@@H]([C@H](CCCCC[S+]([O-])CCCC(F)(F)C(F)(F)F)CC4CC(=O)CC[C@@]43C)[C@@H]1CC[C@@H]2O (stereo partly drawn) , can you help? 16

Item under review: CCCCNC(=O)CCCCCCCC1C[C@H]2CC(=O)CC[C@]2(C)[C@H]2CC[C@]3(C)[C@@H](O)CC[C@H]3[C@H]12 (stereo partly drawn) . Reported FI5? 1600

# FI5 lookup, item CCCCN(C)C(=O)CCCCCCCC[C@@H]1CC2CC(=O)CC[C@]2(C)[C@H]2CC[C@]3(C)[C@@H](O)CC[C@H]3[C@H]12 (stereo partly drawn) 550

Give its FI5 value. Item: CCCCN(C)C(=O)CCCCCCCCCC[C@@H]1CC2CC(=O)CC[C@]2(C)[C@H]2CC[C@]3(C)[C@@H](O)CC[C@H]3[C@H]12 (stereo partly drawn) 1900
